Origin of measurements: PubChem BioAssay (NCATS)

METHOD DESCRIPTION: qHTS for inhibitors of adenylyl cyclases using a fission yeast platform: a pilot screen against the NCATS LOPAC library (AID 1347410)
SETUP CONDITIONS: S. pombe CHP2027, fbp1-GFP fluorescence, 18 h, yeast expressing mammalian AC9 and human GNAS; series mostly up to 57.5 µM
Activity calls are given as the source filed them. Calls follow the shape of the dose curve; as a rule, active = well fitted curve in the direction sought with a large enough effect; inconclusive = small, poorly fitted or top-dose-only effect, or effect the other way, or another doubt; inactive = no such curve, though single readings can be large or run the other way.
READOUT: outcome

molecule="CCCC(CCC)C(=O)OC1CC2CCC(C1)[N+]2(C)C (stereo unspecified)" endpoint_result=inactive
molecule=CN1CC(=O)N/C1=N/C(=O)Nc1cccc(Cl)c1 endpoint_result=inactive
molecule=COc1ccccc1CN[C@@H]1CCCN[C@@H]1c1ccccc1 endpoint_result=inactive
molecule=N#C/C(=C\c1ccc(-c2cc(Cl)ccc2Cl)o1)C(=O)Nc1cccc2ncccc12 endpoint_result=inactive
molecule=OC[C@H]1O[C@@H](n2cnc3c(NC4CCCCC4)ncnc32)[C@H](O)[C@@H]1O endpoint_result=inactive
molecule=Fc1ccc2[nH]c(CN3CCN(c4ccccn4)CC3)cc2c1 endpoint_result=inactive
molecule=CCOC(=O)C1=C(C)NC(C)=C(C(=O)OCC)C1c1c(F)c(F)c(F)c(F)c1F endpoint_result=inactive
molecule=CNc1ncnc2c1ncn2[C@@H]1O[C@H](CO)[C@@H](O)[C@H]1O endpoint_result=inactive
molecule=CS(=O)(=O)c1ccc(-n2nc(C(F)(F)F)cc2-c2ccc(F)cc2)cc1 endpoint_result=inactive
molecule="CC1OC1P(=O)(O)O (stereo unspecified)" endpoint_result=inactive
molecule=C[C@@H](CN1CCC(Cc2ccccc2)CC1)[C@@H](O)c1ccc(O)cc1 endpoint_result=inactive

====

METHOD DESCRIPTION: qHTS of pediatric cancer cell lines to identify multiple opportunities for drug repurposing: Primary screen for NB-EBc1 cells (AID 1347095); also: potency is read from the fitted curve at half-maximal effect
SETUP CONDITIONS: NB-EBc1 neuroblastoma viability, CellTiter-Glo luminescence, 48 h; series mostly up to 46 µM
Procedure: Drug repurposing or repositioning has been offered as a strategy for drug development in oncology programs. This approach has special potential for childhood cancers and other rare or orphan diseases, where the expected return on new drug development has been a disincentive to pharmaceuticals. […] We employed a titration-based paradigm (quantitative high-throughput screening or qHTS), where all compounds were tested at multiple concentrations for their effect on cell viability. […]
Records with an inconclusive call do not appear. Calls of active or inactive are those of the source. The call rests on the fitted dose curve; in most records, active means well fitted cell-killing curve with a large enough effect; inconclusive means small, poorly fitted or top-dose-only effect; inactive means no such curve, though single readings can be large or run the other way.
READOUT: Potency

compound=CN(C)c1ccc(N=NS(=O)(=O)O)cc1 endpoint_result=inactive
compound="CCC1C(=O)OCC1Cc1cncn1C (configuration not stated)" endpoint_result=inactive
compound=CCCSc1ccc2nc(NC(=O)OC)[nH]c2c1 endpoint_result="266 nM (active)"
compound=S=c1[nH]c2ccccc2s1 endpoint_result=inactive
compound=O=C(O)/C=C\C(=O)O endpoint_result=inactive
compound=Nc1c(CC(=O)O)cccc1C(=O)c1ccc(Br)cc1 endpoint_result=inactive
compound=CN(C)CCn1nnnc1SCC1=C(C(=O)O)N2C(=O)[C@@H](NC(=O)Cc3csc(N)n3)[C@H]2SC1 endpoint_result=inactive
compound=Cc1c(N)c(=O)n(-c2ccccc2)n1C endpoint_result=inactive
compound=COc1cc2c3cc1Oc1cc(ccc1O)C[C@@H]1c4c(cc(OC)c(O)c4Oc4ccc(cc4)C[C@@H]3N(C)CC2)CC[N+]1(C)C endpoint_result=inactive
compound=CCCCCCCCCCCCOCCO endpoint_result=inactive
compound=Cc1ccc(C(=O)c2ccc(CC(=O)O)n2C)cc1 endpoint_result=inactive
compound="CC(=O)SCC(CC(=O)c1ccc(C)cc1)C(=O)O (configuration not stated)" endpoint_result=inactive
